experiment: Human liver microsomes intrinsic clearance; format: in vitro ADME
Measurement type: microsomal CLint
Record the result as a number with its unit.

Example cases with answers are listed next.
- CN1CCCN(S(=O)(=O)c2ccc(-c3ccc4c(Nc5ccc(OCc6cccc(F)c6)c(Cl)c5)cnnc4c3)cc2)CC1 [compound 68]: 99.3 µL/min/mg
- O=S(=O)(c1ccc(-c2ccc3nccc(Nc4ccc(OCc5ccccc5)c(Cl)c4)c3c2)cc1)N1CCOCC1 [compound 47]: 78.9 µL/min/mg
- CN1CCCN(S(=O)(=O)c2ccc(-c3ccc4ncc(C#N)c(Nc5ccc(OCc6cccc(F)c6)c(Cl)c5)c4c3)cc2)CC1 [compound 83]: 152 µL/min/mg

Please look at the items below and tell me microsomal CLint for each one, in order.
1. Fc1cccc(COc2ccc(Nc3ncnc4ccc(-c5cccc(N6CCOCC6)c5)cc34)cc2Cl)c1 [compound 1]
2. CN1CCN(S(=O)(=O)c2ccc(-c3ccc4c(Nc5ccc(OCc6cccc(F)c6)c(Cl)c5)ccnc4c3)cc2)CC1 [compound 50]

Result:
63 µL/min/mg
143 µL/min/mg

* * *

experiment: male rat hepatocytes intrinsic clearance; format: in vitro ADME
Measurement type: hepatocyte CLint (µL/min/1e6 cells)
One number for each entry, in µL/min/1e6 cells.

Ask: Reported hepatocyte CLint for "Fc1cccc(COc2ccc(Nc3ncnc4ccc(-c5cccc(N6CCOCC6)c5)cc34)cc2Cl)c1" : what is it?
Result: 44.5

Attribution: paper PMC4515785
